Data origin: ChEMBL document CHEMBL4251566

System: Ramos
assay.details: Antiproliferative activity against human Ramos cells after 72 hrs by CCK-8 assay
pIC50: −log10 of the molar value.
Mark NOT MET for pIC50 values under 5, and MET for everything at or above.

# smiles.notation, target.or.test.system, cat
data = [
    ("C=CC(=O)Nc1cccc(Nc2nc(Nc3ccc(OCCCN4CCOCC4)cc3C)ncc2Cl)c1", "Ramos", "NOT MET"),
    ("C=CC(=O)Nc1cccc(Nc2nc(Nc3ccc(OCC(=O)N4CCOCC4)c(OC)c3)ncc2F)c1", "Ramos", "NOT MET"),
    ("C=CC(=O)Nc1cccc(Nc2nc(Nc3ccc(OCCCN4CCN(CC)CC4)c(Cl)c3)ncc2Cl)c1", "Ramos", "MET"),
    ("C=CC(=O)Nc1cccc(Nc2nc(Nc3ccc(OCC(=O)N4CCOCC4)c(OC)c3)ncc2Cl)c1", "Ramos", "NOT MET"),
    ("C=CC(=O)Nc1cccc(Nc2nc(Nc3ccc(OCCCN4CCN(CC)CC4)cc3C)ncc2Cl)c1", "Ramos", "NOT MET"),
    ("C=CC(=O)Nc1cccc(Nc2nc(Nc3ccc(OCCCN4CCN(C)CC4)cc3C)ncc2Cl)c1", "Ramos", "NOT MET"),
]
